- ASSAY_NAME: chemical genetic growth profiling, strain panel (AID 1159580);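 note: tested at 20 µM; growth read once vehicle control cultures reached saturation at 30 °C; 1 = growth at the plate median or of vehicle wells; lower values mean less growth of the strain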
- TEST_SETTINGS: S. cerevisiae deletion strains, growth OD, locus YPL256C, strain CLN2, active compounds read low
Screen size: about 5,500 compounds; about 2,000 (36%) were called active. Roughly 18% stayed inconclusive and do not appear here. The list shows a part of the results.
PROPERTY: normalized growth

# normalized growth lookup, item `O=C1NCC2(CCN(CCc3ccccc3)CC2)O1`
0.986 (inactive)

Please look up its normalized growth: Cc1ccccc1C(OCCN(C)C)c1ccccc1 (stereo unspecified)
0.933 (inactive)

Could you share which normalized growth value was measured for `CC(=O)Oc1cc(OC(C)=O)c2c(c1)O[C@H](c1ccc(OC(C)=O)c(OC(C)=O)c1)[C@H](OC(C)=O)C2` ?
0.933 (inactive)

Which normalized growth value is on record for `C=CCc1ccc(OC(=O)c2ccccc2)c(OC)c1` ?
0.925 (inactive)

Return reported normalized growth; argument: `CNC(=O)O/N=C(\C)SC`
1.05 (inactive)

For the compound shown here, `C/C(Cc1nnn(-c2cc(C)on2)n1)=N/OC(=O)Nc1ccc(Cl)cc1` , give the reported normalized growth.
0.86 (inactive)

Any idea what its normalized growth is? The compound is CN(C)CCOC(c1ccc(Cl)cc1)c1ccccn1 (stereo unspecified)
1 (inactive)

Entry OCC(O)CN1CCN(c2ccccc2)CC1 (stereo unspecified) has what normalized growth?
0.964 (inactive)

Could you tell me which normalized growth is on file for `C=CCc1ccc(OC)cc1` ?
1 (inactive)

Any idea what normalized growth was measured for `O=C(O[C@@H]1Cc2c(O)cc(O)cc2O[C@@H]1c1cc(O)c(O)c(O)c1)c1cc(O)c(O)c(O)c1` ?
1.05 (inactive)

Give its normalized growth value. Item: `CC(=O)Oc1cc(OC(C)=O)c2c(c1)O[C@H](c1ccc(OC(C)=O)c(OC(C)=O)c1)[C@@H](OC(C)=O)C2`
0.974 (inactive)

* * *

- ASSAY_NAME: chemical genetic growth profiling, strain panel (AID 1159580);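 note: tested at 20 µM; growth read once vehicle control cultures reached saturation at 30 °C; 1 = growth at the plate median or of vehicle wells; lower values mean less growth of the strain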
- TEST_SETTINGS: S. cerevisiae deletion strains, growth OD, locus YOR270C, strain vph1, active compounds read low
Among all 5,500 compounds or so, about 2,000 (36%) were called active. Not shown: some 18% with an inconclusive outcome. This is one part of the list.
PROPERTY: normalized growth

Given the entry CC#CC1(O)CCC2C3CCC4=CC(=O)CCC4=C3C(c3ccc(N(C)C)cc3)CC21C (centres undefined) , report its measured normalized growth.
0.924 (inactive)

# query: normalized growth of entry `COC(=O)/C=C/C(C)=C/C=C/C(C)=C/C=C/C=C(C)/C=C/C=C(C)/C=C/C(=O)O`
0.954 (inactive)

So what does the record say about normalized growth for C=C1C2CC[C@@]3(C)[C@H](c4ccoc4)OC(=O)C[C@]13O[C@H]1CC(=O)C(C)(C)[C@H](C(OC(C)=O)C(=O)OC)[C@@]21C (some centres undefined) ?
0.904 (inactive)

For COC(=O)C1=COC(OC2OC(CO)C(O)C(O)C2O)C2C(C)CC(=O)C12 (centres undefined) , what is its reported normalized growth?
1.11 (inactive)

* * *

Provide the recorded normalized growth for the entries that follow.
- ASSAY_NAME: chemical genetic growth profiling, strain panel (AID 1159580);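 note: tested at 20 µM; growth read once vehicle control cultures reached saturation at 30 °C; 1 = growth at the plate median or of vehicle wells; lower values mean less growth of the strain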
- TEST_SETTINGS: S. cerevisiae deletion strains, growth OD, locus YMR058W, strain fet3, active compounds read low
Hit rate of the full screen: of about 5,500 compounds, about 2,000 (36%) were called active. About 18% were inconclusive and are not listed. This is one part of the list.

Item `CCC[C@H](N[C@@H](C)C(=O)N1[C@H](C(=O)O)C[C@@H]2CCCC[C@@H]21)C(=O)OCC` has what recorded normalized growth?
1.02 (inactive)

Report normalized growth for `O=c1cccc2ccc(O)c(O)c2c1O` please.
0.344 (active)

Sample `CN(C)CCN(Cc1cccs1)c1ccccn1` — what was its normalized growth?
1.01 (inactive)

Recorded normalized growth of `Cc1ncc(CNC(=O)N(CCCl)N=O)c(N)n1` , please.
1.02 (inactive)

Fill blank: measured normalized growth of the compound CCCCC/C=C/CCC(=O)N[C@H]1[C@H](Oc2c3cc4cc2Oc2ccc(cc2Cl)[C@@H](O[C@@H]2O[C@H](CO)[C@@H](O)[C@H](O)[C@H]2NC(C)=O)[C@@H]2NC(=O)[C@H](NC(=O)[C@@H]4NC(=O)[C@H]4NC(=O)C(Cc5ccc(c(Cl)c5)O3)NC(=O)[C@H](N)c3ccc(O)c(c3)Oc3cc(O)cc4c3)c3ccc(O)c(c3)-c3c(OC4O[C@H](CO)[C@@H](O)[C@H](O)[C@@H]4O)cc(O)cc3[C@@H](C(=O)O)NC2=O)O[C@H](CO)[C@@H](O)[C@@H]1O (some centres not stated) is ____.
1 (inactive)

Recorded normalized growth for `c1ccc2c(c1)sc1ccccc12` , please?
0.774 (active)

Entry under review: O=C1CCC(N2C(=O)c3ccccc3C2=O)C(=O)N1 (configuration not stated) . Reported normalized growth?
1.02 (inactive)

normalized growth for `Oc1cc(O)c2c(c1)O[C@H](c1ccc(O)c(O)c1)[C@H](O)C2` ?
1.02 (inactive)

# lookup: normalized growth of `CN(C)CCN(Cc1ccccc1)c1ccccn1`
1.02 (inactive)

Which normalized growth value is on record for `CC[C@@H]1C=C/C=C/C[C@H](C)[C@@H](O)[C@](C)(O)C(=O)[C@H](C)[C@@H](O)[C@H](C)C(=O)[C@H](C)[C@@H](O)[C@H](C)/C=C/C(=O)O[C@H]2[C@@H](C)[C@@H](CC1)O[C@@]1(CC[C@@H](C)[C@@H](C[C@H](C)O)O1)[C@@H]2C` ?
1.02 (inactive)

Tell me the measured normalized growth of COC(=O)C[C@H]1C2(C)CC34OC5(C)O[C@@]6([C@H](OC)C(OC(=O)C(C)C)[C@]7(C)C(/C(=C(/OC)C(C)C)C(=O)O[C@H]7c7ccoc7)[C@@]6(O5)[C@H](OC)[C@@]3(OC)C2OC(C)=O)[C@]14C (some centres not stated) , please.
0.97 (inactive)

Tell me the measured normalized growth of C=CC[C@]1(O)CCC2C3CCC4=CC(=O)CCC4=C3C=C[C@@]21C (some centres not stated) , please.
0.993 (inactive)

What value of normalized growth has been recorded for this entry: `O=C(Oc1cc(OC(=O)c2ccccc2)c2c(c1)O[C@H](c1ccc(OC(=O)c3ccccc3)c(OC(=O)c3ccccc3)c1)[C@@H](OC(=O)c1ccccc1)C2)c1ccccc1`
0.999 (inactive)

Which normalized growth is listed for `C=CCc1ccc(OC)cc1` ?
1.02 (inactive)

Returns the measured normalized growth for the input compound. Input: `CCN(CC)C(=O)N1CCN(C)CC1`
0.979 (inactive)

Consider the compound shown here: `COc1ccc([C@H]2Oc3c(I)c(OC)cc(OC)c3C[C@@H]2O)cc1OC` What is its recorded normalized growth?
1.01 (inactive)

GET /values?readout=normalized growth&item= `CN1CC(=O)N=C1N`
1.04 (inactive)

Value lookup for normalized growth; key = COc1cc2nc(N(C)CCCNC(=O)C3CCCO3)nc(N)c2cc1OC (configuration not stated)
0.996 (inactive)

Need normalized growth of `NS(=O)(=O)c1cc2c(cc1Cl)NC=NS2(=O)=O` , thanks.
1 (inactive)

Data request, read-out normalized growth, for `O=C(O)CCCc1ccc(N(CCCl)CCCl)cc1`
0.979 (inactive)

Reported normalized growth for COc1c(N2CCNC(C)C2)c(F)cc2c(=O)c(C(=O)O)cn(C3CC3)c12 (configuration not stated) : what is it?
0.992 (inactive)

Data request, read-out normalized growth, for CO/N=C1/CN(c2nc3c(cc2F)c(=O)c(C(=O)O)cn3C2CC2)CC1CN (configuration not stated)
0.816 (active)

* * *

Exercise: state measured normalized growth for each of the compounds provided.
- ASSAY_NAME: chemical genetic growth profiling, strain panel (AID 1159580);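 note: tested at 20 µM; growth read once vehicle control cultures reached saturation at 30 °C; 1 = growth at the plate median or of vehicle wells; lower values mean less growth of the strain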
- TEST_SETTINGS: S. cerevisiae deletion strains, growth OD, locus YCL029C, strain bik1, active compounds read low
The campaign covered roughly 5,500 compounds. About 2,000 (36%) were called active. Not shown: some 18% with an inconclusive outcome. This is one part of the list.
// keep it numeric: no unit symbol after the value

Data request, read-out normalized growth, for `NCCc1cnc[nH]1`
1.01

I am curious: what normalized growth value has been reported for `O=c1c(-c2ccc(O)cc2)coc2cc(O)ccc12` ?
0.983

Data request, read-out normalized growth, for C[C@@H]1CC(Cl)CC[C@H]1C(=O)OC(C)(C)C (some centres undefined)
0.98

What value of normalized growth has been recorded for this entry: `CC[C@H]1OC(=O)[C@H](C)[C@@H](O[C@H]2C[C@@](C)(OC)[C@@H](O)[C@H](C)O2)[C@H](C)[C@@H](O[C@@H]2O[C@H](C)C[C@H](N(C)C)[C@H]2O)[C@](C)(OC)C[C@@H](C)C(=O)[C@H](C)[C@@H](O)[C@]1(C)O`
0.994

What value of normalized growth has been recorded for this entry: `COc1ccccc1-c1coc2cc(O)ccc2c1=O`
1

Recorded normalized growth of O=C1CCC(N2C(=O)c3ccccc3C2=O)C(=O)N1 (centres undefined) , please.
0.989

Form field: reported normalized growth of `O=S(=O)(O)CCS`
0.993

normalized growth lookup needed for `O=C1NCC2(CCN(CCc3ccccc3)CC2)O1` , thanks.
1

Please give the measured normalized growth for this compound: `COc1ccc(CN(CCN(C)C)c2ccccn2)cc1`
0.989
